This section presents compounds with their documented Activity values.
Tested on: Eimeria tenella
Experiment: Antiparasitic activity against Eimeria tenella at 50 ppm administered orally through feed after 7 days
Assay type: functional
PROPERTY_NAME: Activity (%)

> print(dat)
                                         smi  property.name  lt.gt.eq  meas.value
 1  CN1CCC(c2ccc3c(-c4ccncc4)c(-c4ccc(F)cc4)[nH]c3c2)CC1       Activity         =          50
 2  Fc1ccc(-c2[nH]c3cc(N4CCOCC4)ccc3c2-c2ccncc2)cc1       Activity         =          50
 3  Nc1nccc(-c2c(-c3ccc(F)cc3)[nH]c3cc(C4CCNCC4)ccc23)n1       Activity         <          50
 4  CN1CCN(Cc2ccc3c(-c4ccncc4)c(-c4ccc(F)cc4)[nH]c3c2)CC1       Activity         =          80
 5  Fc1ccc(-c2[nH]c3cc(C4CCNCC4)ccc3c2-c2ccncc2)cc1       Activity         <          50
 6  CN1CCN(c2ccc3c(-c4ccncc4)c(-c4ccc(F)cc4)[nH]c3c2)CC1       Activity         <          50
 7  CN1CC(c2ccc3c(-c4ccncc4)c(-c4ccc(F)cc4)[nH]c3c2)C1       Activity         =          50
 8  CN1CCC(c2ccc3c(-c4ccnc(N)n4)c(-c4ccc(F)cc4)[nH]c3c2)CC1       Activity         =          80
 9  Fc1ccc(-c2[nH]c3cc(C4CCNCC4)ccc3c2-c2ccncn2)cc1       Activity         <          50
10  CN1CCC(c2ccc3c(-c4ccncn4)c(-c4ccc(F)cc4)[nH]c3c2)CC1       Activity         <          50

====

Test system: Eimeria mitis
Experiment: Antiparasitic activity against Eimeria mitis at 50 ppm administered orally through feed after 7 days
Type: functional
PROPERTY_NAME: Activity (%)

> print(dat)
                                         smi  subject.of.test  property.name  unit.abbrev  lt.gt.eq  meas.value
 1  OCCN1CCC(c2ccc3c(-c4ccncc4)c(-c4ccc(F)cc4)[nH]c3c2)CC1    Eimeria mitis       Activity            %         =          80
 2  CN1CCC(c2ccc3c(-c4ccncn4)c(-c4ccc(F)cc4)[nH]c3c2)CC1    Eimeria mitis       Activity            %         =          50
 3  CN1CCN(c2ccc3c(-c4ccncc4)c(-c4ccc(F)cc4)[nH]c3c2)CC1    Eimeria mitis       Activity            %         <          50
 4  CN1CCC(c2ccc3c(-c4ccncc4)c(-c4ccc(F)cc4)[nH]c3c2)CC1    Eimeria mitis       Activity            %         =          99
 5  Fc1ccc(-c2[nH]c3cc(N4CCOCC4)ccc3c2-c2ccncc2)cc1    Eimeria mitis       Activity            %         <          50
 6  CN1CCN(Cc2ccc3c(-c4ccncc4)c(-c4ccc(F)cc4)[nH]c3c2)CC1    Eimeria mitis       Activity            %         <          50
 7  CN1CCC(Cc2ccc3c(-c4ccncc4)c(-c4ccc(F)cc4)[nH]c3c2)CC1    Eimeria mitis       Activity            %         =          50
 8  OCCN1CCC(c2ccc3c(-c4ccncn4)c(-c4ccc(F)cc4)[nH]c3c2)CC1    Eimeria mitis       Activity            %         =         100
 9  CN1CC(c2ccc3c(-c4ccncc4)c(-c4ccc(F)cc4)[nH]c3c2)C1    Eimeria mitis       Activity            %         <          50
10  Fc1ccc(-c2[nH]c3cc(C4CCNCC4)ccc3c2-c2ccncc2)cc1    Eimeria mitis       Activity            %         <          50

====

This section presents compounds with their documented pIC50 values.
Biological target: cGMP-dependent protein kinase (Eimeria tenella)
Test: Inhibition of Eimeria tenella parasite-specific cGMP-dependent protein kinase
pIC50: −log10 of the molar value.
PROPERTY_NAME: pIC50

> print(dat)
                                         smi                           subject.of.test  meas.value
 1  CN1CCC(Cc2ccc3c(-c4ccncc4)c(-c4ccc(F)cc4)[nH]c3c2)CC1  cGMP-dependent protein kinase (Eimeria tenella)        8.80
 2  Nc1nccc(-c2c(-c3ccc(F)cc3)[nH]c3cc(C4CCN(CCO)CC4)ccc23)n1  cGMP-dependent protein kinase (Eimeria tenella)        9.52
 3  CN1CCC(c2ccc3c(-c4ccnc(N)n4)c(-c4ccc(F)cc4)[nH]c3c2)CC1  cGMP-dependent protein kinase (Eimeria tenella)        9.66
 4  Fc1ccc(-c2[nH]c3cc(N4CCOCC4)ccc3c2-c2ccncc2)cc1  cGMP-dependent protein kinase (Eimeria tenella)        8.04
 5  CN1CCC(c2ccc3c(-c4ccncc4)c(-c4ccc(F)cc4)[nH]c3c2)CC1  cGMP-dependent protein kinase (Eimeria tenella)        9.82
 6  OCCN1CCC(c2ccc3c(-c4ccncc4)c(-c4ccc(F)cc4)[nH]c3c2)CC1  cGMP-dependent protein kinase (Eimeria tenella)       10.00
 7  CN1CC(c2ccc3c(-c4ccncc4)c(-c4ccc(F)cc4)[nH]c3c2)C1  cGMP-dependent protein kinase (Eimeria tenella)        9.21
 8  Fc1ccc(-c2[nH]c3cc(C4CCNCC4)ccc3c2-c2ccncn2)cc1  cGMP-dependent protein kinase (Eimeria tenella)        9.19
 9  CN1CCC(c2ccc3c(-c4ccncn4)c(-c4ccc(F)cc4)[nH]c3c2)CC1  cGMP-dependent protein kinase (Eimeria tenella)        9.40
10  CCN1CCC(c2ccc3c(-c4ccncc4)c(-c4ccc(F)cc4)[nH]c3c2)CC1  cGMP-dependent protein kinase (Eimeria tenella)        9.80

====

Molecular target: cGMP-dependent protein kinase (Eimeria tenella, UniProt Q8MMZ8)
Sequence (Q8MMZ8 whole entry): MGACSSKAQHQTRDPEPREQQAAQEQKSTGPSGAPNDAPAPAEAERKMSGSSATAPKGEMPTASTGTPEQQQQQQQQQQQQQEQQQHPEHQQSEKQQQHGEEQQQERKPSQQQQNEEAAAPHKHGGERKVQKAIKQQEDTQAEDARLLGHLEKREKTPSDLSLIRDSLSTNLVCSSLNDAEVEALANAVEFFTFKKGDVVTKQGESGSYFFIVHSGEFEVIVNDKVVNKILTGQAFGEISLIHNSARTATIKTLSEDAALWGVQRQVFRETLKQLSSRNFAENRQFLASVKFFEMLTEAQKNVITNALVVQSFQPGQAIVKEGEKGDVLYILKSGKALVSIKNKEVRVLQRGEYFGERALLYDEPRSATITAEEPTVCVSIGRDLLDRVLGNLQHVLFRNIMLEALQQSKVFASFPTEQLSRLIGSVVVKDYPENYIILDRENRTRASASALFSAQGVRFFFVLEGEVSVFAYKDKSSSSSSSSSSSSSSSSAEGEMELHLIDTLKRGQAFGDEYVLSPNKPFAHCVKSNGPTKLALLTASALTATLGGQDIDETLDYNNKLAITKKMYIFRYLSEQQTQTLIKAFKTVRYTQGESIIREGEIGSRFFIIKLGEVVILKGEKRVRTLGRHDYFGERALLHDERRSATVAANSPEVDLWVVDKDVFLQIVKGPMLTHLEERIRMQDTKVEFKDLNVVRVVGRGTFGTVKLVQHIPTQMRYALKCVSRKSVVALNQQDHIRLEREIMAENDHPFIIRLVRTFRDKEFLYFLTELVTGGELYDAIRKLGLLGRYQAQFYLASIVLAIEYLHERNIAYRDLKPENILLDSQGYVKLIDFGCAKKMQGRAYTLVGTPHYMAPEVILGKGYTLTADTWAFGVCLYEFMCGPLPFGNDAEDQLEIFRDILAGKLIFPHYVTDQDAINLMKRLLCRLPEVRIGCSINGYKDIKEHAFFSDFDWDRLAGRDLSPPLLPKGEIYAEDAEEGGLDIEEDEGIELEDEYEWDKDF
Assay: Inhibition of Eimeria tenella parasite-specific cGMP-dependent protein kinase
Field 'label' (enum: Y / N). Set to Y when IC50 is strictly under 0.8 nM; else N.

> print(dat)
                                        smi                           subject.of.test  assigned.label
1  CN1CCN(Cc2ccc3c(-c4ccncc4)c(-c4ccc(F)cc4)[nH]c3c2)CC1  cGMP-dependent protein kinase (Eimeria tenella, UniProt Q8MMZ8)               N
2  Nc1nccc(-c2c(-c3ccc(F)cc3)[nH]c3cc(C4CCNCC4)ccc23)n1  cGMP-dependent protein kinase (Eimeria tenella, UniProt Q8MMZ8)               Y
3  Fc1ccc(-c2[nH]c3cc(C4CCNCC4)ccc3c2-c2ccncc2)cc1  cGMP-dependent protein kinase (Eimeria tenella, UniProt Q8MMZ8)               Y
4  CN1CCN(C(=O)c2ccc3[nH]c(-c4ccc(F)cc4)c(-c4ccncc4)c3c2)CC1  cGMP-dependent protein kinase (Eimeria tenella, UniProt Q8MMZ8)               N

====

This section presents compounds with their documented Activity values.
System: Eimeria tenella
Assay: Antiparasitic activity against Eimeria tenella at 50 ppm administered orally through feed after 7 days
Assay type: functional
PROPERTY_NAME: Activity (%)

> print(dat)
                                        smi  property.name  lt.gt.eq  meas.value
1  Nc1nccc(-c2c(-c3ccc(F)cc3)[nH]c3cc(C4CCN(CCO)CC4)ccc23)n1       Activity         <          50
2  OCCN1CCC(c2ccc3c(-c4ccncc4)c(-c4ccc(F)cc4)[nH]c3c2)CC1       Activity         =          50
3  OCCN1CCC(c2ccc3c(-c4ccncn4)c(-c4ccc(F)cc4)[nH]c3c2)CC1       Activity         =          99
4  CN1CCC(Cc2ccc3c(-c4ccncc4)c(-c4ccc(F)cc4)[nH]c3c2)CC1       Activity         <          50
5  CN1CCN(C(=O)c2ccc3[nH]c(-c4ccc(F)cc4)c(-c4ccncc4)c3c2)CC1       Activity         =          80
6  CCN1CCC(c2ccc3c(-c4ccncc4)c(-c4ccc(F)cc4)[nH]c3c2)CC1       Activity         =          50
